TARGET ENTITY: Cell division control protein 42 homolog (Homo sapiens)
ASSAY INFO: wild-type Cdc42 nucleotide-binding inhibitors, SAR follow-up, biochemical, bead-based multiplex flow cytometry, oxadiazole series (AID 2037)
MEASUREMENT CONTEXT: inactive by the depositor's call
Hi! Could you tag entries with EC50 below 2 µM as yes (1), and those at or above as no (0)? Much appreciated.

# MOLECULE, CLASS ASSIGNMENT
rows = [
    ("Cc1ccc(C)c(N2CCN(C(=O)CCc3nc(-c4ccccc4Br)no3)CC2)c1", "no (0)"),
    ("Cc1ccc(C)c(N2CCN(C(=O)CCc3nc(-c4ccc(N(C)C)cc4)no3)CC2)c1 [KUC103409N]", "yes (1)"),
    ("Cc1ccc(C)c(N2CCN(C(=O)CCc3nc(-c4ccc(F)cc4)no3)CC2)c1 [KUC103364N]", "yes (1)"),
    ("COc1ccccc1-c1noc(CCC(=O)N2CCN(c3cc(C)ccc3C)CC2)n1 [UNM-0000306071]", "yes (1)"),
    ("COc1ccc(-c2noc(CCC(=O)N3CCN(c4ccc(C)cc4)CC3)n2)cc1", "yes (1)"),
    ("COc1ccc(-c2cccc(CCC(=O)N3CCN(c4cc(C)ccc4C)CC3)c2)cc1 [UNM-0000306127]", "no (0)"),
    ("COc1ccc(-c2noc(CCC(=O)N3CCN(c4cc(C)ccc4C)CC3)n2)cc1", "no (0)"),
    ("COc1ccc(-c2noc(CCC(=O)N3CCN(c4ccccc4F)CC3)n2)cc1", "yes (1)"),
]

====

TARGET ENTITY: Cell division control protein 42 homolog (Homo sapiens)
ASSAY INFO: wild-type Cdc42 nucleotide-binding inhibitors, SAR follow-up, biochemical, bead-based multiplex flow cytometry, oxadiazole series (AID 2037)
Below, each of the compounds is paired with its reported EC50 value.

# COMPOUND, VALUE COMPARATOR, EC50 / µM
rows = [
    ("COc1ccc(-c2noc(CC(=O)N3CCN(c4cc(C)ccc4C)CC3)n2)cc1", ">", 30),
    ("COc1ccc(-c2noc(CCC(=O)N3CCN(c4ccccc4C)CC3)n2)cc1", "=", 1.71),
    ("Cc1ccc(C)c(N2CCN(C(=O)CCc3nc(-c4ccccc4Cl)no3)CC2)c1", ">", 30),
    ("Cc1ccc(C)c(N2CCN(C(=O)CCc3nc(-c4cccc(Cl)c4)no3)CC2)c1", "=", 2.18),
    ("COc1ccc(-c2noc(CCCC(=O)N3CCN(c4cc(C)ccc4C)CC3)n2)cc1 [KUC103353N]", "=", 6.21),
    ("COc1ccc(-c2noc(CCC(=O)N3CCN(c4ccc(C(F)(F)F)cc4)CC3)n2)cc1", ">", 30),
    ("COc1ccc(-c2noc(CCC(=O)N3CCN(c4ccccc4Cl)CC3)n2)cc1", "=", 0.805),
]

====

TARGET ENTITY: Cell division control protein 42 homolog (Homo sapiens, UniProt P60953)
Sequence (P60953 whole entry): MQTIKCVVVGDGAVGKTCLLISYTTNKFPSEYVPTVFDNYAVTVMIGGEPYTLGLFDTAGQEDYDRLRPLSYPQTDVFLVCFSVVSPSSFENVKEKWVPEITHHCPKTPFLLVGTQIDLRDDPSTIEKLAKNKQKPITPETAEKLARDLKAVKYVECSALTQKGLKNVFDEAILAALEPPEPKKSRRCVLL
ASSAY INFO: wild-type Cdc42 nucleotide-binding inhibitors, SAR follow-up, biochemical, bead-based multiplex flow cytometry, oxadiazole series (AID 2037)
OBSERVATION TYPE: EC50

# QUERY SMILES, OBSERVATION TYPE, VALUE OBSERVED
data = [
    ("COc1ccc(-c2noc(CCC(=O)N3CCN(c4cccc(Cl)c4)CC3)n2)cc1", "EC50", "> 30 µM"),
    ("COc1ccc(-c2noc(CCC(=O)N3CCN(c4cccc(C)c4)CC3)n2)cc1", "EC50", "> 30 µM"),
    ("COc1ccc(-c2noc(CCC(=O)N3CCN(c4ccccc4OC)CC3)n2)cc1", "EC50", "> 30 µM"),
    ("Cc1ccc(C)c(N2CCN(C(=O)CCc3nc(-c4ccccc4)no3)CC2)c1", "EC50", "4 µM"),
    ("COc1ccc(-c2noc(CCCCC(=O)N3CCN(c4cc(C)ccc4C)CC3)n2)cc1", "EC50", "> 30 µM"),
    ("COc1cccc(-c2noc(CCC(=O)N3CCN(c4cc(C)ccc4C)CC3)n2)c1", "EC50", "2.77 µM"),
]
